B1: POU domain, class 3, transcription factor 4, residues 280 to 335; numbered along this chain, P49335 (parent)
chain: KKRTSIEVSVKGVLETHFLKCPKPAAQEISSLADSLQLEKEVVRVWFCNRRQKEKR

# Variants of: B1
# assay-name: abundance fitness (aPCA) (normalised: wild type 0, dead -1); higher = more abundant; growth selection in yeast, the domain comes from the species named
# experimental-context: Homo sapiens
assay-endpoint: abundance fitness
Lab note: jot the number down without any unit.

Requested field: abundance fitness. Item: "S30K"
-0.003

Return reported abundance fitness; argument: "C21M"
-0.723

Could you tell me which abundance fitness is on file for "K2P" ?
-0.559

What measured abundance fitness goes with "L14D" ?
-0.825

Requested read-out: abundance fitness. Entry: "S35C"
-0.383

Endpoint output: abundance fitness of "L32V" . Value?
-0.625

Please report the recorded abundance fitness for "S31E" .
-0.058

Can you look up the measured abundance fitness of "A26P" for me?
0.149

Fill in: abundance fitness of "R44C" is ___
-0.801

Given the variant "L38E" , what is its reported abundance fitness?
-0.729

Source: the Human Domainome abundance scans (Beltran et al. 2025)
